Target: human GPBAR1 receptor (Homo sapiens (Human), UniProt Q8TDU6)
Sequence (Q8TDU6 whole entry): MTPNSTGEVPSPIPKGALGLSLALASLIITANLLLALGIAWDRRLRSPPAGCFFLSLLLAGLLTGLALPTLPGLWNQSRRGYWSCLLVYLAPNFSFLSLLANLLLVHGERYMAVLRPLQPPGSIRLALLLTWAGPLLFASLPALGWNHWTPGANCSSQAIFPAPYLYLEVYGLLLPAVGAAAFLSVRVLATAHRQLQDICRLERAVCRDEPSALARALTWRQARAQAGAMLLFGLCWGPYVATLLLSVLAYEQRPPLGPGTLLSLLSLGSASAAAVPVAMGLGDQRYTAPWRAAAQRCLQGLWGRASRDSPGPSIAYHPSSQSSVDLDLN
Assay: functional cAMP assay in CHO-dhfr(minus) cells expressing human GPBAR1 receptors
Details: CHO-dhfr(minus) cells expressing human GPBAR1, 30 min at 30° C.
pEC50: −log10 of the molar value.
Recorded pEC50 for the following molecules
Assay Endpoint: pEC50

[[record]]
molecule = "COc1cc(F)ccc1-c1ccncc1N(CC1CCCO1)C(=O)c1cc(C(F)(F)F)cc(S(C)(=O)=O)c1 (single isomer, unassigned; (-)) [Example 233]"
measured_value = 7.27

[[record]]
molecule = "COc1cc(F)ccc1-c1ccncc1N(C)C(=O)c1cc(F)cc(C(F)(F)F)c1"
measured_value = 7.12

[[record]]
molecule = "CNc1cc(-c2ccccc2C)c(N(C)C(=O)c2cc(C(F)(F)F)cc(C(F)(F)F)c2)cn1"
measured_value = 6.49

[[record]]
molecule = "CN(C(=O)c1cc(C(F)(F)F)cc(C(F)(F)F)c1)c1cnccc1-c1cccc(Cl)n1"
measured_value = 5.81

[[record]]
molecule = "COc1cc(F)ccc1-c1ccncc1N(C)C(=O)c1cc(C(F)(F)F)cc(S(=O)(=O)N2CC3(COC3)C2)c1"
measured_value = 8.30

